Recorded Bliss excess for the following compounds
System: DSH1 (Bladder Carcinoma);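 also: after 72 h of two-drug dosing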
experiment-description: Bliss excess, mean over the matrix (fraction); higher = more synergy
endpoint: Bliss excess

1) Cc1c2c(nn1C)CSCc1cc(n(C)n1)CSc1cc(c3ccccc3c1)OCCCc1c(C(=O)O)n(C)c3c-2c(Cl)ccc13 [AZD5991] + C[C@@H](Nc1cc(F)cc(F)c1)c1cc(C(=O)N(C)C)cc2c(=O)cc(N3CCOCC3)oc12 [AZD8186] (first compound max 1 µM, 7x7, partner max 3 µM)	-0.0603
2) COc1nnc2ccc(N3CCC(c4ccc(OCCN5CCN(C)C(=O)[C@H]5C)cc4)CC3)nn12 [AZD5153] + C[C@@H]1COCCN1C2=NC(=NC(=C2)C3(CC3)[S@](=N)(=O)C)C4=C5C=CNC5=NC=C4 [AZD6738] (first compound max 1 µM, 7x7, partner max 10 µM)	0.0321
